The origin of these recorded values is ChEMBL document CHEMBL2203046.

- Test target: Glucocorticoid receptor (Homo sapiens, UniProt P04150)
- Sequence (P04150 whole entry): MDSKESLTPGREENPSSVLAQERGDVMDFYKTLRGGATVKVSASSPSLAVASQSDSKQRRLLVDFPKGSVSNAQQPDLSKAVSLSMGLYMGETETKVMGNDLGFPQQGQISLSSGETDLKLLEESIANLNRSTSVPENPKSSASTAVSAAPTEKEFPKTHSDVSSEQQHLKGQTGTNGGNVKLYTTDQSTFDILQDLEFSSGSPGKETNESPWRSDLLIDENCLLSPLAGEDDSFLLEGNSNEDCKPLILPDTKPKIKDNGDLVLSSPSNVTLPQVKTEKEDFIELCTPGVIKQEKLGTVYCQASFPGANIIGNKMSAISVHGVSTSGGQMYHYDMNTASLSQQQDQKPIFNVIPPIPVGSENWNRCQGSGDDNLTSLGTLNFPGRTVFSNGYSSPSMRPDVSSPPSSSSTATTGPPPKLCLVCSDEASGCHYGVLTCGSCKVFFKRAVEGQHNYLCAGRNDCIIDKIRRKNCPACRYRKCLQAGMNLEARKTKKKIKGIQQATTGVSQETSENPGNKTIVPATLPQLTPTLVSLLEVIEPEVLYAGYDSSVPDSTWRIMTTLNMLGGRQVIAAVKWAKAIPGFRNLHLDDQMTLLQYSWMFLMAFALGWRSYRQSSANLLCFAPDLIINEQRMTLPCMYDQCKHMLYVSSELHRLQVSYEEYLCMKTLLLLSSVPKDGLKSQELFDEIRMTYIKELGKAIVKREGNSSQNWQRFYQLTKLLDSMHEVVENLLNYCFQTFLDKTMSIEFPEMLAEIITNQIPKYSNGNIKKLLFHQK
- Assay procedure: Antagonist activity at glucocorticoid receptor in human SW1353 cells assessed as inhibition of dexamethasone-induced luciferase expression after 16 hrs by MMTV5 reporter gene assay
- Assay type: functional, cell-based
This section presents compounds with their documented pKi values.
Keep it numeric: pKi is minus log10 of the concentration in mol/L.

Previously resolved entries follow.
Please give the measured pKi for this compound: Cc1cccc(Cc2c(=O)n(C)c(=O)[nH]c2[C@H]2CC[C@@H](c3ccccc3)CC2)c1
7.41

Please give the measured pKi for this compound: O=c1[nH]c(=O)c(Cc2cccc(C(F)(F)F)n2)c([C@H]2CC[C@@H](c3ccccc3)CC2)[nH]1
7.33

New cases:
Please give the measured pKi for this compound: Cc1cccc(Cc2c(=O)[nH]c(=O)[nH]c2[C@H]2CC[C@@H](c3ccccc3)CC2)c1
7.68

Please give the measured pKi for this compound: O=c1[nH]c(=O)c(Cc2cccc(C(F)(F)F)c2)c([C@H]2CC[C@@H](c3ccccc3)CC2)[nH]1
7.62

Please give the measured pKi for this compound: O=c1[nH]c(=O)c(Cc2c(Cl)cccc2Cl)c([C@H]2CC[C@@H](c3ccccc3)CC2)[nH]1
7.17

Please give the measured pKi for this compound: Cn1c(=O)[nH]c([C@H]2CC[C@@H](c3ccccc3)CC2)c(Cc2cccc(C(F)(F)F)c2)c1=O
6.79

Please give the measured pKi for this compound: O=c1[nH]c(=O)c(Cc2ncccc2Cl)c([C@H]2CC[C@@H](c3ccccc3)CC2)[nH]1
6.94

----------
- Assay procedure: Plasma protein binding in human
- Type: ADME, cell-free
- Condition parameters: read-out: PPB
Metric: fraction unbound

Please give the measured fraction unbound for this compound: O=c1[nH]c(=O)c(Cc2cccc(C(F)(F)F)c2)c([C@H]2CC[C@@H](c3ccccc3)CC2)[nH]1
< 0.001
